- Experiment description: Half life in Sprague-Dawley rat at 10 mg/kg, po
- Study conditions: in vivo
Property: half-life (h)

| Compound string | Quantitative result |
| --- | --- |
| COc1c(Nc2ccc(S(C)(=O)=O)nc2C)ncnc1OC1CCN(C(=O)OC(C)C)CC1 | 4.3 |

###

- Study target: Voltage-gated inwardly rectifying potassium channel KCNH2 (Homo sapiens, UniProt Q12809)
- Sequence (Q12809 whole entry): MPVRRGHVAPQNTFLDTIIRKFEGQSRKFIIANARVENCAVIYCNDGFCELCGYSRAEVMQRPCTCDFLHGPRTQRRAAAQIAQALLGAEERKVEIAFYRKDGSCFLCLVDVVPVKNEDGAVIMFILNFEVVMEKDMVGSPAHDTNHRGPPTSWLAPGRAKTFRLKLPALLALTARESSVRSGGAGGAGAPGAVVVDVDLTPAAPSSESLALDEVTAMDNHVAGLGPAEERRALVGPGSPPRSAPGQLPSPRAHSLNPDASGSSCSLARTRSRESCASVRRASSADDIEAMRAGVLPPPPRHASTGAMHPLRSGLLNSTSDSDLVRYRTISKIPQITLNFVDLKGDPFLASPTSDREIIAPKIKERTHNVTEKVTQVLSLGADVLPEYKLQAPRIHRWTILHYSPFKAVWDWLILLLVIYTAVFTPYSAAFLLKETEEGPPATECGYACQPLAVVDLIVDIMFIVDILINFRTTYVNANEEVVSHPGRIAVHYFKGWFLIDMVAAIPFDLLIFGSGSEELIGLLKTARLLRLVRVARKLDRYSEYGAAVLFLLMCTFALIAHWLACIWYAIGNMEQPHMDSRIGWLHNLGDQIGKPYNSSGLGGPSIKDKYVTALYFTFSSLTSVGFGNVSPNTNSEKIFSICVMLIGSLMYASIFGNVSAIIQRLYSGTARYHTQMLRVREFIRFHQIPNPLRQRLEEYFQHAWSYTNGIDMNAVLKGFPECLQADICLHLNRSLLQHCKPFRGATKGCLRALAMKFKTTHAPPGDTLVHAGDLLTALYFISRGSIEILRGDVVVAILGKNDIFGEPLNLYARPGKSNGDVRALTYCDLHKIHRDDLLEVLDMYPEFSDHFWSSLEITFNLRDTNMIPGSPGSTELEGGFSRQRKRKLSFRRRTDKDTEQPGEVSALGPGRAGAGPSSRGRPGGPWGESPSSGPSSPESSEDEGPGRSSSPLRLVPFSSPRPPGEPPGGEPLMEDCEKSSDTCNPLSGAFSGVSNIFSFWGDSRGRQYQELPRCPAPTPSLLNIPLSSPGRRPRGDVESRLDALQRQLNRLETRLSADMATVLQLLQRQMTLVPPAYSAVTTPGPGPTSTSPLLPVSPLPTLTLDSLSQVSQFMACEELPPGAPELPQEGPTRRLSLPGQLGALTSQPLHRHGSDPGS
Property: IC50

| Compound | Result |
| --- | --- |
| COc1c(Nc2ccc(S(C)(=O)=O)nc2C)ncnc1OC1CCN(C(=O)OC(C)C)CC1 [ADP-597] | > 10 µM |

###

- Experiment description: Clearance in iv dosed Zucker fa/fa rat
- Format: ADME, organism-based
- Study conditions: in vivo

| Compound string | clearance |
| --- | --- |
| CC(C)OC(=O)N1CCC(Oc2ncnc3c2cnn3-c2ccc(S(C)(=O)=O)cc2F)CC1 | 7.33 mL/min/kg |

###

- Experiment description: AUC (0 to infinity) in Beagle dog at 7.85 mg/kg, po
- Format: ADME, organism-based, Canis lupus familiaris
- Design: time infinity, dose 7.85 mg/kg, route oral
- Study conditions: plasma
Property: AUC(0-inf) (µg·h/mL)

| Compound string | Quantitative result |
| --- | --- |
| COc1c(Nc2ccc(S(C)(=O)=O)nc2C)ncnc1OC1CCN(C(=O)OC(C)C)CC1 | 43.7 |

###

- Experiment description: Clearance in iv dosed Sprague-Dawley rat
- Format: ADME, organism-based
- Study conditions: in vivo
We begin with a simple list: items and their reported clearance.
Property: clearance (mL/min/kg)

| Compound | Property | Units text | Quantitative result |
| --- | --- | --- | --- |
| CC(C)OC(=O)N1CCC(Oc2ncnc3c2cnn3-c2ccc(S(C)(=O)=O)cc2F)CC1 | clearance | mL/min/kg | 20 |
| COc1c(Nc2ccc(S(C)(=O)=O)nc2C)ncnc1OC1CCN(C(=O)OC(C)C)CC1 [ADP-597] | clearance | mL/min/kg | 9.67 |

###

- Experiment description: Tmax in cynomolgus monkey at 10 mg/kg, po
- Assay type: ADME, organism-based, Macaca fascicularis
- Parameters: dose 10 mg/kg, route oral
- Study conditions: in vivo

| Compound string | Tmax |
| --- | --- |
| COc1c(Nc2ccc(S(C)(=O)=O)nc2C)ncnc1OC1CCN(C(=O)OC(C)C)CC1 | 6 h |

###

- Experiment description: AUC (0 to infinity) in cynomolgus monkey at 10 mg/kg, po
- Type: ADME, organism-based, Macaca fascicularis
- Parameters: time infinity, dose 10 mg/kg, route oral
- Study conditions: plasma
Property: AUC(0-inf) (ng·h/mL)

| Compound | Property | Quantitative result |
| --- | --- | --- |
| COc1c(Nc2ccc(S(C)(=O)=O)nc2C)ncnc1OC1CCN(C(=O)OC(C)C)CC1 [ADP-597] | AUC(0-inf) | 64200 |

###

- Experiment description: Mean residence time in C57Bl mouse at 10 mg/kg, po
- Assay type: ADME, organism-based
- Set-up: dose 10 mg/kg, route oral
- Study conditions: in vivo

| Compound string | MRT [h] |
| --- | --- |
| COc1c(Nc2ccc(S(C)(=O)=O)nc2C)ncnc1OC1CCN(C(=O)OC(C)C)CC1 | 7.9 |
